system under test: T1, recombinant monkey TfR (r monkey TfR: Sino Biological Inc.) (cynomolgus monkey (Macaca fascicularis), UniProt Q5RDH6 89-760 (Pongo abelii entry))
T1 construct: Bought product; also called r monkey TfR-ECD (Histag); cynomolgus monkey TfR; not shown: histidine tag attached to the N-terminus
T1 chain: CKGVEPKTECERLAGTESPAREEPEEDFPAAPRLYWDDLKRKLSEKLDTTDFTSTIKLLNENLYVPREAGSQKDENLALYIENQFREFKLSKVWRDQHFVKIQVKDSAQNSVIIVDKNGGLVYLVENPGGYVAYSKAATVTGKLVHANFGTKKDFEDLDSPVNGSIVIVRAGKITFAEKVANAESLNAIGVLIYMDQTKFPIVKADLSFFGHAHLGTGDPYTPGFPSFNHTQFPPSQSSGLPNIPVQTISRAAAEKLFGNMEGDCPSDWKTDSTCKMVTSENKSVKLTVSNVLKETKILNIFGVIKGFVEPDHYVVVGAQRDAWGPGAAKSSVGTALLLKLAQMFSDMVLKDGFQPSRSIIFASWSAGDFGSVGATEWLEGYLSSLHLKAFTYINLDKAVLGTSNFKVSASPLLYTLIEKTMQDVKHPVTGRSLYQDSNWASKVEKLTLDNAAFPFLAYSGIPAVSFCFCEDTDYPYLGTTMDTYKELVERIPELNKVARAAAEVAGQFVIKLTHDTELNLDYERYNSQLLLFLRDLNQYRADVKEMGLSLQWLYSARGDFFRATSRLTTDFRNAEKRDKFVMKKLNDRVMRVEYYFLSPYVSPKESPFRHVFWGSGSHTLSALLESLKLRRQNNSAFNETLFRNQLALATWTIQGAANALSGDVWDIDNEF
assay summary: BLI (Octet RED96), His-tagged TfR ECD loaded on Ni-NTA sensor, antibody as analyte
Measured kon by item
Form entry: value (M⁻¹ s⁻¹) — number only.

- anti-hTfR antibody No. 14 (antibody, V domains shown, Mouse hybridoma antibody purified on Protein G; also called mouse anti-hTfR antibody No. 14; product of Clone 14 line) VH: EVQLQESGPELLKPGASVKMSCKASGYAFTGYVIHWVKQKPGQGLEWIGFLNPHKDDSEYNEKFRGKATLTSDKSSSTAYMDLSSLTSEDSAVYYCARGYYYYSMDYWGQGTSVTVSS VL: DIVLTQTPVIMSAYPGEKVTLTCSASSNINSIHWYQQKPGTSPKRWIYDTSNLASGVPARFSGSGSGTSYSLTISSMEAEDAASYYCHQRSGYPFTFGSGTKLEIK: 700000

The binder identified as anti-hTfR antibody No. 12 (antibody, V domains shown, Mouse hybridoma antibody purified on Protein G; also called mouse anti-hTfR antibody No. 12; product of Clone 12 line) VH: EVQLQESGAELARPGTSVKVSCKAAGYVFINYLIEWVKQRPGQGLEWIGVIHSGSGGTNYNDNFKDKATLTRDVSSSTAYMQLSSLTSDDSAVYFCARRNFGNYYFDYWGQGTTLTVSS VL: DIVLTQSHKFMSTVIGDRVSITCKASHDVKTAVAWYQQTPGQSPKLLTYWSSTRHTGVPDRFTGSGSGTDYTLTISSVQAEDLALYYCQQHFSTPLTFGAGTKLELK registered its kon at 505000

Attribution: patent US20240262926A1
